Target: hSGLT3 (Homo sapiens)
Construct: The complete hSGLT3 clone was created by ligation of this PCR product to the 3′-end of hSGLT3 at the HindIII site; expressed in transfected cells; host or cells: Xenopus laevis oocytes injected with hSGLT3 cRNA
Sequence (Q9NY91 1-659): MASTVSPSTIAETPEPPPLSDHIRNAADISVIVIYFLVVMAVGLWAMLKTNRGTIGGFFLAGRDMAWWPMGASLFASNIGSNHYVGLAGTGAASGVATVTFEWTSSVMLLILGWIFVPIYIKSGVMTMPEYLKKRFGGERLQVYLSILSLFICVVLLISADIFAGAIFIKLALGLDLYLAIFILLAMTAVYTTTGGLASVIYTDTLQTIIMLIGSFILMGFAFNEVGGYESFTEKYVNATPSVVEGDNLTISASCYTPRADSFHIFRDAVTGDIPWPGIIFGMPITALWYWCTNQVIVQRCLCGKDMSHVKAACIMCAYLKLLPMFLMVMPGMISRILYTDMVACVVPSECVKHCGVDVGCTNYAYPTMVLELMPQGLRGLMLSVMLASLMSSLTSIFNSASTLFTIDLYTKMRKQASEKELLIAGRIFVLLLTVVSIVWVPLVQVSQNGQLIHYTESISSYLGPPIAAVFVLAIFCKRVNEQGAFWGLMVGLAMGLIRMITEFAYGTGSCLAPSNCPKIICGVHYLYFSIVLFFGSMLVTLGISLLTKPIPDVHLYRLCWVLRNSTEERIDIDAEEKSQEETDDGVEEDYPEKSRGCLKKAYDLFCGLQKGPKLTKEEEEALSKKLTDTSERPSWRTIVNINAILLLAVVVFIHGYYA
Test: two-electrode voltage-clamp, membrane potential of hSGLT3-expressing Xenopus oocytes
Type: cell-based
Conditions: range printed with mixed units (nanomolar to micromolar); read-out: affinities to activate SGLT2
reported-metric: EC50

// query Find the measured EC50 of "OC[C@H]1NC[C@H](O)[C@@H](O)[C@@H]1O" and report it.
// result 500 to 2000 nM
